Data provenance is ChEMBL document CHEMBL1121801.

DR10: recorded values
test_system: Adrenergic receptor alpha (Homo sapiens) (UniProt P35348+P08913+P18825+P25100+P35368+P18089)
assay_context: Canis lupus familiaris
Description: In vivo sympatholytic activity (phenylephrine-induced vasopressor response) at alpha-adrenergic receptor in anesthetized dog, iv
Enter your answer as a number in mg/kg; do not include the unit.

Example compounds with recorded DR10:
# compound, DR10 [mg/kg]
rows = [
    ("CC(C)NC(=O)c1cc(C(O)CNC(C)CCc2ccc3c(c2)OCO3)ccc1O.Cl (stereo not drawn)", 4.84),
    ("COC(=O)c1cc(C(O)CNC(C)CCc2ccc3c(c2)OCO3)ccc1O.Cl (stereo not drawn)", 5.82),
    ("CC(Cc1ccc2c(c1)OCO2)NCC(O)c1ccc(O)c(C(N)=O)c1 (stereo not drawn)", 16),
    ("CNC(=O)c1cc(C(O)CNC(C)CCc2ccc3c(c2)OCO3)ccc1O.Cl (stereo not drawn)", 5.44),
    ("CCNC(=O)c1cc(C(O)CNC(C)CCc2ccc3c(c2)OCO3)ccc1O.Cl (stereo not drawn)", 3.22),
]

stdin: # get_value(readout='DR10', item= CC(CCc1ccc2c(c1)OCO2)NCC(O)c1ccc(O)c(C(=O)NCC(C)(C)C)c1.Cl (stereo not drawn) )
stdout: 6.6

stdin: # get_value(readout='DR10', item= Cc1ccccc1N1CCN(CC(O)c2ccc(O)c(C(N)=O)c2)CC1.Cl.Cl (stereo not drawn) )
stdout: 1.09

stdin: # get_value(readout='DR10', item= CC(CCc1ccc2c(c1)OCO2)NCC(O)c1ccc(O)c(C(N)=O)c1.Cl (stereo not drawn) [MEDROXALOL HYDROCHLORIDE] )
stdout: 3.86

----------
test_system: Beta-2 adrenergic receptor (Canis lupus familiaris) (UniProt P54833);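 further: Beta-2 blockade of isoproterenol-induced vasodepression in anesthetized dogs, given intravenously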
Sequence (P54833 whole entry, looked up): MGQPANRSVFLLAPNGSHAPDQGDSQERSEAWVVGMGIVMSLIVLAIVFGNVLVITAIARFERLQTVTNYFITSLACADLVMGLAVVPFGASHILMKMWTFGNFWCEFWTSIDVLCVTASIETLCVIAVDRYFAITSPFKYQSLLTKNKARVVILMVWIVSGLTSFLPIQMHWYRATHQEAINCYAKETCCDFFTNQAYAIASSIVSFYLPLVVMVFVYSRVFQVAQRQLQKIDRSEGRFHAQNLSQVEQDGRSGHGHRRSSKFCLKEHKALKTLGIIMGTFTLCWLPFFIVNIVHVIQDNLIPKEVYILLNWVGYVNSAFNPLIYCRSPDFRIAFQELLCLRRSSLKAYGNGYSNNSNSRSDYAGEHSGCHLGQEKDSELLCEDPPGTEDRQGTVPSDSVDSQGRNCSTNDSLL
quantity: DR10 (mg/kg)
Enter your answer as a number in mg/kg; do not include the unit.

# molecule, test_system, DR10, mg/kg
measured = [
    ("CNC(=O)c1cc(C(O)CNC(C)CCc2ccc3c(c2)OCO3)ccc1O.Cl (configuration not stated)", "Beta-2 adrenergic receptor (Canis lupus familiaris) (UniProt P54833)", 3.61),
    ("COc1ccc(C(O)CNC(C)CCc2ccc3c(c2)OCO3)cc1C(N)=O.Cl (configuration not stated)", "Beta-2 adrenergic receptor (Canis lupus familiaris) (UniProt P54833)", 1.64),
    ("CC(Cc1ccc2c(c1)OCO2)NCC(O)c1ccc(O)c(C(N)=O)c1 (configuration not stated)", "Beta-2 adrenergic receptor (Canis lupus familiaris) (UniProt P54833)", 7.13),
    ("COC(=O)c1cc(C(O)CNC(C)CCc2ccc3c(c2)OCO3)ccc1O.Cl (configuration not stated)", "Beta-2 adrenergic receptor (Canis lupus familiaris) (UniProt P54833)", 5.46),
]

Switching to the query record.
stdin: Query the reported DR10 for Beta-2 adrenergic receptor (Canis lupus familiaris) (UniProt P54833); item: CC(C)(CCc1ccc2c(c1)OCO2)NCC(O)c1ccc(O)c(C(N)=O)c1.Cl (configuration not stated)
stdout: 0.76

----------
test_system: Adrenergic receptor alpha-1 (Homo sapiens, UniProt P35348+P25100+P35368)
assay_method_text: In vitro blocking activity against alpha adrenergic receptor, isolated from rabbit aortic strip
Assay type: protein assay, Oryctolagus cuniculus
pA2: recorded values

Example compounds with recorded pA2:
# compound, quantity, assay_result
records = [
    ("COC(=O)c1cc(C(O)CNC(C)(C)CCc2ccc3c(c2)OCO3)ccc1O.Cl (stereo not drawn)", "pA2", "< 5"),
    ("COC(=O)c1cc(C(O)CN2CCN(C(=O)c3ccco3)CC2)ccc1O.Cl (stereo not drawn)", "pA2", "< 5"),
]

Switching to the query record.
stdin: # get_value(readout='pA2', item= COc1ccc(C(O)CNC(C)CCc2ccc3c(c2)OCO3)cc1C(N)=O.Cl (stereo not drawn) )
stdout: < 5.14
